Provenance of the data: patent US5859016A

assay: Single toxicity study, lethality by a single oral administration; assay type: in vivo, rats; details: rat, in vivo; after a single administration (oral)
Where a name gives a salt, the structure may show the parent alone.
Recorded Metric: LD50 (mg/kg)
Number in mg/kg, nothing else.

Q: Which LD50 is reported for this compound? C[n+]1c2n(c(=O)c3ccccc31)CCc1c-2[nH]c2ccccc12 [DHED, dehydroevodiamine-HCl]
Result: 2000
